Provide the recorded Ki for the entries that follow.

Input: Record lookup: for PIK3CG (human) (UniProt P48736), what Ki belongs to COc1cc(-c2cc(C)c3c(n2)[C@]2(CCCO2)N(c2cnn(CC(F)(F)F)c2)C3=O)cnc1OC ?
Output: < 100 nM

Input: Record lookup: for PIK3CG (human) (UniProt P48736), what Ki belongs to COC1c2nc(-c3cncc(OCC(F)F)c3)cc(C)c2C(=O)N1c1cnn(CC(F)(F)F)c1 (centres undefined) ?
Output: < 100 nM

Input: Record lookup: for PIK3CG (human) (UniProt P48736), what Ki belongs to COc1cc(-c2cc(C)c3c(n2)[C@@](C)(O)N(c2cnn(CC(F)(F)F)c2)C3=O)cnc1OC ?
Output: < 100 nM

Input: Record lookup: for PIK3CG (human) (UniProt P48736), what Ki belongs to COCCC1c2nc(-c3cnc(OC)c(OC)c3)cc(C)c2C(=O)N1c1cnn(CC(F)(F)F)c1 (centres undefined) ?
Output: < 100 nM

Input: Record lookup: for PIK3CG (human) (UniProt P48736), what Ki belongs to Cc1cc(-c2cncc(C(=O)NC3CCOC3)c2)nc2c1C(=O)N(c1cnn(CC(F)(F)F)c1)C2(C)C (centres undefined) ?
Output: < 100 nM

Input: Record lookup: for PIK3CG (human) (UniProt P48736), what Ki belongs to CCOc1cncc(-c2cc(C)c3c(n2)C(C)N(c2cnn(CC(F)(F)F)c2)C3=O)c1 (centres undefined) ?
Output: < 100 nM

Input: Record lookup: for PIK3CG (human) (UniProt P48736), what Ki belongs to COc1cc(-c2cc(C)c3c(n2)CN(c2ccn(CC(F)(F)F)n2)C3=O)cnc1OC ?
Output: < 100 nM

Input: Record lookup: for PIK3CG (human) (UniProt P48736), what Ki belongs to COc1cncc(-c2cc(C)c3c(n2)CN(c2ccn(CC4CCCO4)n2)C3=O)c1 (centres undefined) ?
Output: < 100 nM

Input: Record lookup: for PIK3CG (human) (UniProt P48736), what Ki belongs to COc1cc(-c2ccc3c(c2)CN(c2csc(C)c2)C3=O)cnc1OC ?
Output: 100 to 490 nM

====

Provide the recorded Ki for the entries that follow.
Molecular target: UniProt P48736

Input: Query (molecule): COc1cc(-c2ccc3c(n2)CN(c2cnn(CCN(C)C)c2)C3=O)cnc1OC ; field requested: Ki
Output: 100 to 490 nM

Input: Query (molecule): COc1cc(-c2cc(C)c3c(n2)CN(c2cnn(CC(F)(F)F)c2)C3=O)ccn1 ; field requested: Ki
Output: < 100 nM

Input: Query (molecule): CCn1ccc(N2C(=O)c3c(C)cc(-c4cncc(OC)c4)nc3C2(C)C)n1 ; field requested: Ki
Output: 100 to 490 nM

Input: Query (molecule): COc1cncc(-c2cc(C)c3c(n2)CN(c2ccn(CC(C)(C)F)n2)C3=O)c1 ; field requested: Ki
Output: < 100 nM

Input: Query (molecule): CCn1cc(N2Cc3nc(-c4cncc(OCC(F)(F)F)c4)cc(C)c3C2=O)cn1 ; field requested: Ki
Output: < 100 nM

Input: Query (molecule): CCOc1cncc(-c2cc(C)c3c(n2)C(C)(C)N(c2cnn(CC#N)c2)C3=O)c1 ; field requested: Ki
Output: < 100 nM

Input: Query (molecule): COc1cc(-c2cc(C)c3c(n2)CN(c2cn[nH]c2)C3=O)cnc1OC ; field requested: Ki
Output: < 100 nM

Input: Query (molecule): CCc1cc(N2Cc3nc(-c4cnc(OC)c(OC)c4)cc(C)c3C2=O)n[nH]1 ; field requested: Ki
Output: < 100 nM

Input: Query (molecule): COCn1cc(N2Cc3nc(-c4cnc(OC)c(OC)c4)cc(C)c3C2=O)cn1 ; field requested: Ki
Output: < 100 nM

Input: Query (molecule): CCn1cc(N2Cc3nc(-c4cnc(OC)c(OC)c4)cc(C)c3C2=O)nn1 ; field requested: Ki
Output: < 100 nM

====

Provide the recorded Ki for the entries that follow.

Input: Record lookup: for PIK3CG (human) (UniProt P48736), what Ki belongs to CCn1ccc(N2Cc3nc(-c4cnc(OC)c(OC(C)C)c4)cc(C)c3C2=O)n1 ?
Output: < 100 nM

Input: Record lookup: for PIK3CG (human) (UniProt P48736), what Ki belongs to COc1ccc(-c2cc(C)c3c(c2)CN(c2cnn(CC(F)(F)F)c2)C3=O)cc1OC ?
Output: < 100 nM

Input: Record lookup: for PIK3CG (human) (UniProt P48736), what Ki belongs to Cc1cc(-c2cncc(C(=O)NCC(F)F)c2)nc2c1C(=O)N(c1cnn(CC(F)(F)F)c1)C2(C)C ?
Output: < 100 nM

Input: Record lookup: for PIK3CG (human) (UniProt P48736), what Ki belongs to CCn1cc(N2Cc3cc(-c4ccc(OC)c(OC)n4)ccc3C2=O)cn1 ?
Output: 100 to 490 nM

Input: Record lookup: for PIK3CG (human) (UniProt P48736), what Ki belongs to CCC1c2nc(-c3cncc(OC(F)F)c3)cc(C)c2C(=O)N1c1cnn(CC(F)(F)F)c1 (stereo not given) ?
Output: < 100 nM

Input: Record lookup: for PIK3CG (human) (UniProt P48736), what Ki belongs to COc1cc(-c2cc(C)c3c(n2)C(OC2CCC2)N(c2cnn(CC(F)(F)F)c2)C3=O)cnc1OC (stereo not given) ?
Output: < 100 nM

Input: Record lookup: for PIK3CG (human) (UniProt P48736), what Ki belongs to COc1cc(-c2ccc3c(n2)CN(c2cnn(CCn4cncn4)c2)C3=O)cnc1OC ?
Output: < 100 nM

Input: Record lookup: for PIK3CG (human) (UniProt P48736), what Ki belongs to COc1cncc(-c2cc(C)c3c(n2)CN(c2cnn(C[C@H](C)F)c2)C3=O)c1 ?
Output: < 100 nM

Input: Record lookup: for PIK3CG (human) (UniProt P48736), what Ki belongs to CC#CCn1cc(N2Cc3cc(-c4cnc(OC)c(OC)c4)ccc3C2=O)cn1 ?
Output: 100 to 490 nM

Input: Record lookup: for PIK3CG (human) (UniProt P48736), what Ki belongs to CCOc1ncc(-c2cc(C)c3c(n2)C2(CCCO2)N(c2ccn(CC)n2)C3=O)cc1OC (stereo not given) ?
Output: 100 to 490 nM

Input: Record lookup: for PIK3CG (human) (UniProt P48736), what Ki belongs to COc1cncc(-c2cc(C)c3c(n2)C(C)(C)N(c2ccn(CC(C)(C)O)n2)C3=O)c1 ?
Output: 100 to 490 nM

Input: Record lookup: for PIK3CG (human) (UniProt P48736), what Ki belongs to Cc1cc(-c2cnc(C)c(OCC(F)F)c2)nc2c1C(=O)N(c1ccn([C@H]3CCOC3)n1)C2 ?
Output: < 100 nM

Input: Record lookup: for PIK3CG (human) (UniProt P48736), what Ki belongs to CCO[C@]1(C)c2nc(-c3cnc(OC)c(OC)c3)cc(C)c2C(=O)N1c1cnn(CC(F)(F)F)c1 ?
Output: < 100 nM

Input: Record lookup: for PIK3CG (human) (UniProt P48736), what Ki belongs to CCn1ccc(N2C(=O)c3ccc(-c4cnc(OC)c(OC)c4)nc3[C@H]2C)n1 ?
Output: < 100 nM

Input: Record lookup: for PIK3CG (human) (UniProt P48736), what Ki belongs to COc1cc(-c2ccc3c(n2)CN(c2ccc(N(C)CC4CCCO4)nc2)C3=O)cnc1OC (stereo not given) ?
Output: 100 to 490 nM

====

pKi: −log10 of the molar value.
property.name: pKi

Input: Record lookup: for UniProt P48736, what pKi belongs to CON=Cc1cncc(-c2cc(C)c3c(n2)C(C)(C)N(c2cnn(CC(F)(F)F)c2)C3=O)c1 ?
Output: > 7.00

Input: Record lookup: for UniProt P48736, what pKi belongs to Cc1cc(-c2cncc(OCC(F)F)c2)nc2c1C(=O)N(c1cnn(CC(F)F)c1)C2(C)C ?
Output: > 7.00

Input: Record lookup: for UniProt P48736, what pKi belongs to COc1cncc(-c2cc(C)c3c(n2)C(C)N(c2cn[nH]c2)C3=O)c1 (stereo not given) ?
Output: > 7.00

Input: Record lookup: for UniProt P48736, what pKi belongs to CCOc1ncc(-c2cc(C)c3c(n2)C2(CC2)N(c2cnn(CC(F)(F)F)c2)C3=O)cc1OC ?
Output: > 7.00

Input: Record lookup: for UniProt P48736, what pKi belongs to CCc1cc(N2Cc3nc(-c4cnc(OC)c(OC)c4)ccc3C2=O)nn1C[C@H](C)O ?
Output: > 7.00

Input: Record lookup: for UniProt P48736, what pKi belongs to Cc1cc(-c2cccnc2)nc2c1C(=O)N(c1cnn(CC#N)c1)C2 ?
Output: > 7.00

Input: Record lookup: for UniProt P48736, what pKi belongs to CCOCCCOc1cc(-c2cc(C)c3c(n2)CN(c2cnn(CC(F)(F)F)c2)C3=O)cnc1OC ?
Output: > 7.00

Input: Record lookup: for UniProt P48736, what pKi belongs to COc1cncc(-c2cc(C)c3c(n2)C2(CCOCC2)N(c2cnn(CC(F)(F)F)c2)C3=O)c1 ?
Output: > 7.00

Input: Record lookup: for UniProt P48736, what pKi belongs to COc1cc(-c2ccc3c(c2)CN(c2cnn(CC(C)C)c2)C3=O)cnc1OC ?
Output: 6.31 to 7.00

Input: Record lookup: for UniProt P48736, what pKi belongs to COc1cc(-c2ccc3c(n2)CN(c2ccc(N4CCOCC4)nc2)C3=O)cnc1OC ?
Output: 6.31 to 7.00

Input: Record lookup: for UniProt P48736, what pKi belongs to Cc1cc(-c2cncc(OC(F)F)c2)nc2c1C(=O)N(c1cnn(C[C@@H](C)O)c1)C2 ?
Output: > 7.00

Input: Record lookup: for UniProt P48736, what pKi belongs to C=C(F)Cn1cc(N2C(=O)c3ccc(-c4cnc(OC)c(OC)c4)nc3C2(C)C)cn1 ?
Output: > 7.00

Input: Record lookup: for UniProt P48736, what pKi belongs to COc1cc(-c2ccc3c(n2)CN(c2cnn(CCN4CCCCC4)c2)C3=O)cnc1OC ?
Output: 6.31 to 7.00

Input: Record lookup: for UniProt P48736, what pKi belongs to CCOc1ncc(-c2cc(C)c3c(n2)CN(c2cn(CC(F)(F)F)cn2)C3=O)cc1OC ?
Output: > 7.00

Input: Record lookup: for UniProt P48736, what pKi belongs to COCCOc1ccc(N2Cc3nc(-c4cnc(OC)c(OC)c4)ccc3C2=O)cn1 ?
Output: > 7.00

Input: Record lookup: for UniProt P48736, what pKi belongs to Cc1cc(-c2cnc(C)c(O)c2)nc2c1C(=O)N(c1cnn(CC(F)(F)F)c1)C2(C)C ?
Output: > 7.00

Input: Record lookup: for UniProt P48736, what pKi belongs to CCn1ccc(N2C(=O)c3c(C)cc(-c4cncc(OC(F)F)c4)nc3[C@@H]2C)n1 ?
Output: > 7.00

Input: Record lookup: for UniProt P48736, what pKi belongs to COc1cc(-c2cc(C)c3c(n2)CN(c2cnn(CC(F)(F)F)c2)C3=O)ccc1F ?
Output: > 7.00

Input: Record lookup: for UniProt P48736, what pKi belongs to CCn1cc(N2C(=O)c3ccc(-c4cnc(OC)c(OC)c4)nc3[C@H]2C)cn1 ?
Output: > 7.00

Input: Record lookup: for UniProt P48736, what pKi belongs to COCCO[C@H]1c2nc(-c3cnc(OC)c(OC)c3)ccc2C(=O)N1c1cnn(CC(F)(F)F)c1 ?
Output: 6.31 to 7.00
